Data origin, for the record: patent US20170209448A1

pIC50: −log10 of the molar value.
For mTORC (Homo sapiens), measured pIC50 is reported for the entries below.

Field: example entries. Status: answers known.
Q: Form field: reported pIC50 of `Nc1ncnc2c1c(-c1cc3cc(O)ccc3[nH]1)nn2C1CCCC1`
Ans: > 8.00

Q: Another molecule to check: `CC(C)N1CCC(n2nc(-c3cc4cccc(O)c4[nH]3)c3c(N)ncnc32)CC1`
Ans: > 7.60

Q: What about `Nc1ncnc2c1c(-c1cc3c(Cl)cccc3[nH]1)nn2C1CCOCC1` ?
Ans: > 7.30

Q: Same read-out for `CC(=O)N1CCC(n2nc(-c3cc4ccc(O)cc4[nH]3)c3c(N)ncnc32)CC1` ?
Ans: > 8.00

Q: Repeat with `CC(C)n1nc(-c2cc3ccc(C(N)=O)cc3[nH]2)c2c(N)ncnc21`
Ans: > 6.30

Next:
Q: Using the record for `Nc1ncnc2c1c(-c1cc3ccc(O)cc3[nH]1)nn2C1CCOCC1` , report its pIC50.
Ans: > 7.00

Q: For `Nc1ncnc2c1c(-c1cc3cc(O)ccc3[nH]1)nn2C1CC(=O)C1` then?
Ans: > 7.00

Q: Cool, now `CC(C)n1nc(-c2cc3ccc(O)cc3[nH]2)c2c(N)ncnc21`
Ans: > 7.30

Q: Another molecule: `CC(C)n1nc(-c2cc3c(Cl)ccc(O)c3[nH]2)c2c(N)ncnc21`
Ans: > 8.00

Q: `Cc1nccn1CCn1nc(-c2cc3cc(O)ccc3[nH]2)c2c(N)ncnc21` , same question.
Ans: > 7.00

Q: Can you check `CC(C)n1nc(-c2cc3cc(O)c(Cl)cc3[nH]2)c2c(N)ncnc21` next?
Ans: > 6.30
